Each entry below lists one item and its recorded max. fold increase (maximum fold increase of SMN protein) value.
Test system: SMN protein
Assay: SMN protein assay (HTRF) in cultured SMA patient fibroblast cells
Format: cell-based
Settings: SMA Type 1 human fibroblasts GM03813, 48 hours, 7-point concentration data; fold vs vehicle control
Counter-ions that a name gives are not always drawn.
// no unit string in output, number only

Cc1cn2cc(NC(=O)c3ccc(N4CC5(CNC5)C4)nc3)ccc2n1 [Example 16, hydrochloride]    1.6598
Cc1nc2c(F)cc(NC(=O)c3ccc(N4CCNC(C)C4)cc3)cc2o1 (racemic)    1.632

Read the entry Cc1cn2cc(NC(=O)c3ncc(N4CCNC(C)C4)cc3F)cc(Cl)c2n1 (racemic) [Example 56, dihydrochloride] and write its reported max. fold increase (maximum fold increase of SMN protein).
1.7299

Read the entry CCN1CCN(c2ccc(C(=O)Nc3cn4cc(C)nc(C)c4n3)cn2)CC1 and write its reported max. fold increase (maximum fold increase of SMN protein).
1.7677

Read the entry Cc1cn2cc(NC(=O)c3c(F)cc(N4CCNC(C)C4)cc3F)cc(Cl)c2n1 (racemic) [Example 57, trihydrochloride] and write its reported max. fold increase (maximum fold increase of SMN protein).
1.578

---

System: full length SMN2 minigene mRNA (FL SMN2mini) in HEK293H cells stably transfected with the SMN2-A minigene construct
Assay: SMN2 minigene mRNA splicing RT-qPCR assay in cultured cells
Assay type: cell-based
Conditions: Homo sapiens, HEK293-H, 24 hours, 7-point concentration curve, concentration giving 1.5-fold FL SMN2mini mRNA vs vehicle, read-out: EC1.5x minigene (EC1.5x concentration for production of full length SMN2 minigene mRNA)
MEASURED_METRIC: EC (1.5-fold) (µM)
Express your answer in µM, writing the number without its unit.

Check out these entries, answers already filled in.
CCOc1nc(N2CCNCC2)ccc1C(=O)Nc1cc(F)c2nc(C)cn2c1    0.015
Cc1cn2cc(NC(=O)c3ccc(N4CCNCC4)c(C)c3)cc(F)c2n1    0.518
Cc1nc2c(F)cc(NC(=O)c3ccc(N4CC(C)NC(C)C4)cc3)cc2o1 (centres unmarked)    0.41

Read the entry Cc1cn2cc(NC(=O)c3ccc(C4CCNCC4)cc3F)cc(F)c2n1.Cl [Example 81, hydrochloride] and write its reported EC (1.5-fold).
0.0374

Read the entry Cc1cn2cc(NC(=O)c3ccc(N4CCNC(C)C4)cn3)ccc2n1 (racemic) and write its reported EC (1.5-fold).
0.233

---

Each entry below lists one item and its recorded EC (1.5-fold) value.
System: full length SMN2 minigene mRNA (FL SMN2mini) in HEK293H cells stably transfected with the SMN2-A minigene construct
Assay: SMN2 minigene mRNA splicing RT-qPCR assay in cultured cells
Format: cell-based
Settings: Homo sapiens, HEK293-H, 24 hours, 7-point concentration curve, concentration giving 1.5-fold FL SMN2mini mRNA vs vehicle, read-out: EC1.5x minigene (EC1.5x concentration for production of full length SMN2 minigene mRNA)
Structures can show the parent of a compound that is named as a salt.
Express your answer in µM, writing the number without its unit.

Cc1cn2cc(NC(=O)c3ccc(N4CCNCC4)nc3OCC(F)(F)F)cc(F)c2n1    0.062

Read the entry Cc1cn2cc(NC(=O)c3ccc(N4CCN(C)C(C)C4)nc3)ccc2n1 (racemic) and write its reported EC (1.5-fold).
0.371

Read the entry Cc1cn2cc(NC(=O)c3ncc(N4CCNC(C)C4)cc3F)cc(Cl)c2n1 (racemic) [Example 56, dihydrochloride] and write its reported EC (1.5-fold).
0.017

Read the entry Cc1nc2c(F)cc(NC(=O)c3ccc(N4CCN5CCC[C@H]5C4)nc3)cc2o1 and write its reported EC (1.5-fold).
0.382

Read the entry COc1cc(N2CCNCC2)ncc1C(=O)Nc1cc(F)c2nc(C)cn2c1 and write its reported EC (1.5-fold).
0.0308

---

Each entry below lists one item and its recorded max. fold increase (maximum fold increase of SMN protein) value.
System: SMN protein
Test: SMN protein assay (HTRF) in cultured SMA patient fibroblast cells
Assay type: cell-based
Settings: SMA Type 1 human fibroblasts GM03813, 48 hours, 7-point concentration data; fold vs vehicle control
Where a name gives a salt, the structure may show the parent alone.
// no unit string in output, number only

Cc1cn2cc(NC(=O)c3ccc(N4CCNC(C)C4)nc3)cc(C(F)(F)F)c2n1 (racemic)    1.7789
Cc1nc2c(F)cc(NC(=O)c3ccc(N4CCN5CCC[C@H]5C4)cc3F)cc2o1    1.7541
Cc1cn2cc(NC(=O)c3ccc(N4CCN5CCC[C@H]5C4)nc3)cc(C(F)(F)F)c2n1    1.7755
Cc1cn2cc(NC(=O)c3ccc(N4CCN(C)CC4)nc3)cc(F)c2n1    1.7579
COc1cc(N2CCNC(C)C2)ncc1C(=O)Nc1cc(F)c2nc(C)cn2c1 (racemic)    1.7274
Cc1cn2cc(NC(=O)c3ccc(N4CCN(C)CC4)nc3)nc2c(C)n1    1.8047
Cc1cn2cc(NC(=O)c3ccc(N4CC(C)NC(C)C4)nc3)cc(C(F)(F)F)c2n1 (centres unmarked)    1.7566
Cc1cn2cc(NC(=O)c3ccc(N4CCN(C)CC4)cc3F)nc2c(C)n1    1.769
Cc1cn2cc(NC(=O)c3ccc(C4CCN(C)CC4)nc3)ccc2n1    1.7897
Cc1cn2cc(NC(=O)c3ccc(N4CCNC(C)C4)cn3)nc2c(C)n1 (racemic)    1.735

Now let's try a different one.
Read the entry Cc1cn2cc(NC(=O)c3ccc(N4CCNC(C)C4)cn3)cc(F)c2n1 (racemic) [Example 43, dihydrochloride] and write its reported max. fold increase (maximum fold increase of SMN protein).
1.7873

---

Each entry below lists one item and its recorded max. fold increase (maximum fold increase of SMN protein) value.
Tested on: SMN protein
Test: SMN protein assay (HTRF) in cultured SMA patient fibroblast cells
Type: cell-based
Conditions: SMA Type 1 human fibroblasts GM03813, 48 hours, 7-point concentration data; fold vs vehicle control
Where a name gives a salt, the structure may show the parent alone.
// no unit string in output, number only

Cc1nc2ccc(NC(=O)c3ccc(N4CCNC(C)C4)cc3F)cc2o1 (racemic) [Example 38, dihydrochloride]    1.8706
Cc1cn2cc(NC(=O)c3ccc(C4CCN(C)CC4)nc3)cc(F)c2n1    1.5928
Cc1cn2cc(NC(=O)c3ccc(N4CCN[C@@H](C)C4)cc3)nc2c(C)n1    1.7558
Cc1cn2cc(NC(=O)c3ccc(N4C[C@H]5CNC[C@H]5C4)nc3)ccc2n1 [Example 15, hydrochloride]    1.6859
Cc1cn2cc(NC(=O)c3ccc(N4CCNC(C)C4)cc3F)cc(C)c2n1 (racemic) [Example 37, dihydrochloride]    1.7758

Read the entry Cc1cn2cc(NC(=O)c3ccc(N4CCNCC4)cn3)nc2c(C)n1 and write its reported max. fold increase (maximum fold increase of SMN protein).
1.7143

Read the entry Cc1cn2cc(NC(=O)c3ccc(N4CCNCC4)nc3)cc(C(F)(F)F)c2n1 and write its reported max. fold increase (maximum fold increase of SMN protein).
1.664

Read the entry Cc1cn2cc(NC(=O)c3ccc(N4CCNC(C)C4)nc3)ccc2n1 (racemic) and write its reported max. fold increase (maximum fold increase of SMN protein).
1.6512

---

Tested on: full length SMN2 minigene mRNA (FL SMN2mini) in HEK293H cells stably transfected with the SMN2-A minigene construct
Assay: SMN2 minigene mRNA splicing RT-qPCR assay in cultured cells
Assay type: cell-based
Conditions: Homo sapiens, HEK293-H, 24 hours, 7-point concentration curve, concentration giving 1.5-fold FL SMN2mini mRNA vs vehicle, read-out: EC1.5x minigene (EC1.5x concentration for production of full length SMN2 minigene mRNA)
Structures can show the parent of a compound that is named as a salt.
Each entry below lists one item and its recorded EC (1.5-fold) value.
Please state the number and follow it with the unit.

Cc1cn2cc(NC(=O)c3ccc(N4CCNC(C)C4)nc3)cc(F)c2n1 (racemic) [Example 42, dihydrochloride]    0.0544 µM
Cc1cn2cc(NC(=O)c3ccc(N4CCNCC4)nc3)ccc2n1    0.231 µM

Now let's try a different one.
Read the entry Cc1cn2cc(NC(=O)c3ccc(N4CCNCC4)nc3)cc(C(F)(F)F)c2n1 and write its reported EC (1.5-fold).
0.267 µM

---

Tested on: full length SMN2 minigene mRNA (FL SMN2mini) in HEK293H cells stably transfected with the SMN2-A minigene construct
Assay: SMN2 minigene mRNA splicing RT-qPCR assay in cultured cells
Format: cell-based
Settings: Homo sapiens, HEK293-H, 24 hours, 7-point concentration curve, concentration giving 1.5-fold FL SMN2mini mRNA vs vehicle, read-out: EC1.5x minigene (EC1.5x concentration for production of full length SMN2 minigene mRNA)
Description: The reverse transcription-quantitative PCR-based (RT-qPCR) assay is used to quantify the level of the full length SMN2 minigene (referred to herein by the term “FL SMN2mini”) mRNA containing SMN2 exon 7 in a HEK293H cell line stably transfected with said minigene and treated with a test compound. […] Full length SMN2-A minigene and GAPDH mRNA are quantified using the primers and probes referenced in Table 1. […]
Each entry below lists one item and its recorded EC (1.5-fold) value.
Express your answer in µM, writing the number without its unit.

Check out these entries, answers already filled in.
Cc1nc2c(F)cc(NC(=O)c3ccc(N4CCN5CCC[C@@H]5C4)cc3F)cc2o1    0.328
Cc1cn2cc(NC(=O)c3ccc(N4CCNC(C)C4)cc3)nc2c(C)n1 (racemic)    0.14
Cc1cn2cc(NC(=O)c3cnc(N4CCNCC4)cc3F)cc(F)c2n1    0.0285

Now let's try a different one.
Read the entry Cc1cn2cc(NC(=O)c3ccc(N4CCN(C)CC4)nc3)nc2c(C)n1 and write its reported EC (1.5-fold).
0.233
